Recorded values, source patent US20150140169.

Target: T1, alpha-s1 casein from Bos taurus
T1 chain: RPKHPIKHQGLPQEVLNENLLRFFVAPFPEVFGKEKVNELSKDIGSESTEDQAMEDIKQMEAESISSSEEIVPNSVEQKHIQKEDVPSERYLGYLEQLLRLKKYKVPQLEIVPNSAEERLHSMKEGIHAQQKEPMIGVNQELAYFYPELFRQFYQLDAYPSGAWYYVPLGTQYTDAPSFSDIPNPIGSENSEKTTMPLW
αs1 CN, 6 hours, 11° C. values by entry
measuredEndpoint: αs1 CN, 6 hours, 11° C. (Volume)

camel chymosin variant #136 (F223C) (protein) GKVAREPLTSYLDSQYFGKIYIGTPPQEFTVVFDTGSSDLWVPSIYCKSNVCKNHHRFDPRKSSTFRNLGKPLSIHYGTGSMEGFLGYDTVTVSNIVDPNQTVGLSTEQPGEVFTYSEFDGILGLAYPSLASEYSVPVFDNMMDRHLVARDLFSVYMDRNGQGSMLTLGAIDPSYYTGSLHWVPVTLQQYWQFTVDSVTINGVAVACVGGCQAILDTGTSVLCGPSSDILKIQMAIGATENRYGEFDVNCGNLRSMPTVVFEINGRDYPLSPSAYTSKDQGFCTSGFQGDNNSELWILGDVFIREYYSVFDRANNRVGLAKAI : 2.86e+07
camel chymosin variant #139 (F223L) (protein) GKVAREPLTSYLDSQYFGKIYIGTPPQEFTVVFDTGSSDLWVPSIYCKSNVCKNHHRFDPRKSSTFRNLGKPLSIHYGTGSMEGFLGYDTVTVSNIVDPNQTVGLSTEQPGEVFTYSEFDGILGLAYPSLASEYSVPVFDNMMDRHLVARDLFSVYMDRNGQGSMLTLGAIDPSYYTGSLHWVPVTLQQYWQFTVDSVTINGVAVACVGGCQAILDTGTSVLLGPSSDILKIQMAIGATENRYGEFDVNCGNLRSMPTVVFEINGRDYPLSPSAYTSKDQGFCTSGFQGDNNSELWILGDVFIREYYSVFDRANNRVGLAKAI : 2.1e+07
Chymax M (recombinant camel chymosin) (protein) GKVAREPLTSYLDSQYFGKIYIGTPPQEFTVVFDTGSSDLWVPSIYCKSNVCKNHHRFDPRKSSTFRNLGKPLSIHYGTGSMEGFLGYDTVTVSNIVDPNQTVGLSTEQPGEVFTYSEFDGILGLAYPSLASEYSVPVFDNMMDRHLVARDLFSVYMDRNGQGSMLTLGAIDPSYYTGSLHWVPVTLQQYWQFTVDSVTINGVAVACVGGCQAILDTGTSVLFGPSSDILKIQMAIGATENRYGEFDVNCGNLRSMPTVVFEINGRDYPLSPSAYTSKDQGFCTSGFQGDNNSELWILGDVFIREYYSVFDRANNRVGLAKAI : 2.73e+07
camel chymosin variant #152 (D290G) (protein) GKVAREPLTSYLDSQYFGKIYIGTPPQEFTVVFDTGSSDLWVPSIYCKSNVCKNHHRFDPRKSSTFRNLGKPLSIHYGTGSMEGFLGYDTVTVSNIVDPNQTVGLSTEQPGEVFTYSEFDGILGLAYPSLASEYSVPVFDNMMDRHLVARDLFSVYMDRNGQGSMLTLGAIDPSYYTGSLHWVPVTLQQYWQFTVDSVTINGVAVACVGGCQAILDTGTSVLFGPSSDILKIQMAIGATENRYGEFDVNCGNLRSMPTVVFEINGRDYPLSPSAYTSKDQGFCTSGFQGGNNSELWILGDVFIREYYSVFDRANNRVGLAKAI : 2.51e+07
